src = PubChem BioAssay

- test summary: growth of efflux-deficient E. coli DRC39 – strain DRC39, OD650, 48 h, E. coli filamentation inducers, primary screen (AID 1179);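 also: screen aims at cell division blockers that make cells filament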
- condition: E. coli DRC39 delta-acrAB growth, higher = more signal, called active from +8 up or from −8 down
assay readout: z-score
Answer using only a numeral; do not append any unit.

- compound: "N#Cc1ccc(NN2C(C(O)c3ccccc3)C=CC3C(=O)N(c4ccccc4)C(=O)C32)cc1 (centres undefined)"
  z-score: 0.0355
- compound: "COCCCNC(=O)[C@@]1(Cc2ccccc2N=[N+]=[N-])N=C(c2ccc(OCCCO)cc2)O[C@H]1c1ccccc1CN=[N+]=[N-]"
  z-score: 0.575
- compound: "CC1CC/C=C\\[C@H]2OC34C=CCN(Cc5ccccc5)C(=O)[C@H]3N(CCO)C(=O)[C@@H]4C2C(=O)O1 (some centres undefined)"
  z-score: 0.566
- compound: "CN(C)CCCNC(=O)[C@@]1(Cc2ccccc2I)c2ccccc2C(=O)N(Cc2ccccc2Cl)[C@H]1c1ccc(CO)cc1"
  z-score: -1.26

Input line: I am curious: what z-score value has been reported for `Cc1ccc(S[C@]2(C(=O)O)CC(=O)N(C3CCCCC3)[C@@H]2c2ccc(CO)cc2)cc1` ?
Output line: 1.48

Input line: Give its z-score value. Item: `COC(=O)[C@]1(Cc2ccccc2CN=[N+]=[N-])N=C(c2ccc(OCCCO)cc2)O[C@@H]1c1ccccc1`
Output line: -0.865

Input line: Fill in the blank: the reported z-score of `COC(=O)[C@@]1(Cc2ccc(F)cc2)[C@H]2c3cc(C(=O)N(C)C)n(CCSCCO)c3C[C@H]2CN1C(=O)c1ccccc1` is ____.
Output line: -0.32

Input line: Item under review: `COc1ccc([Si](C)(C)[C@H]2[C@H](CCn3cc(CCO)nn3)O[C@@]3(C(=O)N(Cc4cccc(N5C(=O)c6cccc7cccc5c67)c4)c4ccccc43)[C@@H]2C)cc1` . Reported z-score?
Output line: 1.74

Input line: // returns reported z-score for input COC(=O)c1ccc(OC)c(/C=C\CC(CCc2ccccc2)OC(C)=O)c1 (centres undefined)
Output line: -0.238

Input line: Sample `COC(=O)C(CC#Cc1ccc2c(c1)[C@]1(C(=O)N2)[C@H](c2ccc(O)cc2)N2[C@H](c3ccccc3)[C@H](c3ccccc3)OC(=O)[C@H]2[C@@H]1C(=O)O)C(=O)OC` — what was its z-score?
Output line: -0.286

Input line: Dear colleague, I am looking for the recorded z-score of the following compound: `[N-]=[N+]=Nc1ccccc1[C@H]1OC(c2ccc(OCCCO)cc2)=N[C@@]1(Cc1ccccc1)C(=O)NCc1ccccc1`
Output line: 1.76

Input line: Please give the measured z-score for this compound: `Cc1ccc(F)cc1S(=O)(=O)N[C@@H]1CCN(C(=O)c2ccc(OC(C)C)cc2)C1`
Output line: 0.427

###

- test summary: JC-1 mitochondrial signal, unstimulated MM1S myeloma – cell-based, JC-1 fluorescence, 24 h, 100 nL compound, profiling panel (AID 1170); also: test concentration not given here
- condition: MM1S mitochondrial potential, higher = more signal
# z-score annotations
Reply with just the number.

Known results for molecules:
- molecule: "O=C1c2ccccc2[C@](Cc2ccccc2I)(C(=O)NCC(F)(F)F)[C@H](c2ccc(CO)cc2)N1Cc1ccccc1"
  data value: -0.645
- molecule: "COCCOC(=O)N1C(=O)[C@@]2(c3cc(C#CCCO)ccc31)[C@H](C(=O)N1CCc3cc(OC)c(OC)cc3C1)[C@H]1C(=O)O[C@H](c3ccccc3)[C@H](c3ccccc3)N1[C@@H]2c1ccc(OCCO)cc1"
  data value: -0.901
- molecule: "O=C(C=C(CC(O)c1cccc(Cl)c1)OCCF)OCCF (centres undefined)"
  data value: -0.273

Now examine the next entry.
Input line: z-score lookup needed for C=CCC(OC(C)=O)[C@@H]1[C@@H](N(Cc2ccc(-c3ccccc3)cc2)C(=O)Cc2ccc(OC)cc2)c2cc(OCCCO)ccc2N1C(=O)c1ccc(-c2ccccc2)cc1 (some centres undefined) , thanks.
Output line: 0.494
